Target: 6xHis-CerM (Cereibacter sphaeroides WS8N) (UniProt Q3J1N9)
Sequence: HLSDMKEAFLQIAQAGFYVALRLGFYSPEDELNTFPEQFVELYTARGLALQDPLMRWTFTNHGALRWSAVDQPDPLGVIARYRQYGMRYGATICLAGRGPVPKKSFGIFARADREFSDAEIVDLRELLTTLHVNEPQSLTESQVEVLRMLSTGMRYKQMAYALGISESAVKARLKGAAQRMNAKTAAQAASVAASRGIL
Assay: EMSA
Conditions: 10 mM Tris pH 7.5, 1 mM EDTA, 0.1 M KCl, 0.1 mM DTT, 5% glycerol, 0.10 mg/mL BSA, 20 min room temperature; 50 ng DNA, 50-200 ng CerM; 4% native gel in TAE pH 7.
assay-endpoint: binding

Consider the worked cases shown below.
CAGCTTGTATGAATGGACATATCCAAAAAGACAGGTTTGTTTCAAGACAAGTTTTTCTGGATGGAATTGGACGTCGGGCGGGGTTTTGGCACACAATATGCTTGTTATCCGGGCAGGGACAGCTGGAAGATTTACGGAGACATTTCATGAAACATCCCGTCGACGCCCAC (double strand) [14710 fragment B (170 bp)] :: binds
GACATATCCAAAAAGACAGGTTTGTTTCAAGACAAGTTTTTCTGGATGGAATTGGACGTCGGGCGGGGTTTTGGCACACAATATGCTTGTTATCCGGGCAGGGACAGCTGGAAGATTTACGGAGACATTTCATGAAACATCCCGTCGACGCCCAC (double strand) [14710 fragment H (155 bp)] :: binds
CCCGAATATTCGCGACTTGCAAAGTTTCGGCGGCGAATTCGCTGCAAATTGCATTGCAGAATGCAAAAGACCTCAGAGGCGAGTGACGTGTCTCCCGTGCTCCCGAGGGATGATCCACAGCGGCGGACGCCGAACGAACCCAGCTTGTATGAATGGACATATCCAAAAAGACAGGTTTGTTT (double strand) [14710 fragment I (182 bp)] :: binds
CAAAAAGACAGGTTTGTTTCAAGACAAGTTTTTCTGGATGGAATTGGACGTCGGGCGGGGTTTTGGCACACAATATGCTTGTTATCCGGGCAGGGACAGCTGGAAGATTTACGGAGACATTTCATGAAACATCCCGTCGACGCCCAC (double strand) [14710 fragment F (147 bp)] :: no binding

Now take the following sequence into account.
input: # return recorded binding for entry CCCGAATATTCGCGACTTGCAAAGTTTCGGCGGCGAATTCGCTGCAAATTGCATTGCAGAATGCAAAAGACCTCAGAGGCGAGTGACGTGTCTCCCGTGCTCCCGAGGGATGATCCACAGCGGCGGACGCCGAACGAACCCAGCTTGTATGAATGGACATATC (double strand) [14710 fragment G (163 bp)]
output: no binding
